Below, each entry is listed alongside its reported melting point.

molecule: O=C(NCCN1CCOCC1)Nc1nc2ccc(OC(c3c(Cl)cccc3Cl)C(F)(F)F)cc2s1 (centres undefined)
metric.name: melting point
observed.value: 150 to 160 °C
--
molecule: CCCCCCCCCCCCCCCCCCOC(=O)COc1ccc(C2C(=O)Oc3c(C)cc(C)cc32)cc1 (centres undefined)
metric.name: melting point
observed.value: 57 to 59 °C
--
molecule: CCc1ccc2c(c1)C(=O)CCCC(=O)N2
metric.name: melting point
observed.value: 138 to 140 °C

Consider the molecule shown here: O=C(Nc1c[nH]nc1C(=O)NCCCOc1ccccc1)c1ccccn1 What is its recorded melting point? 182 to 184 °C

Consider the molecule shown here: Nc1cccc(-c2ccc3nncn3n2)c1 What is its recorded melting point? 225 °C

Consider the molecule shown here: CC1(C)CCC(C)(C)c2cc(-c3cc(-c4ccc(C(=O)O)cc4)ccc3O)ccc21 What is its recorded melting point? 240 to 241 °C

Consider the molecule shown here: NS(=O)(=O)c1ccc(-n2nc(C(F)(F)F)cc2-c2ccc(-c3ncco3)cc2)cc1 What is its recorded melting point? 215 to 217 °C

Consider the molecule shown here: COc1ccc(/C=C/S(=O)(=O)Nc2ccc(F)cc2)cc1 What is its recorded melting point? 115 to 117 °C

Consider the molecule shown here: O=C(c1ccc(Cl)cc1)N1CCC(=Cc2ccc(C3=NCCO3)cc2F)CC1 What is its recorded melting point? 150 to 152 °C

###

Below, each entry is listed alongside its reported melting point.

smiles.input: CN(C)c1cc(Oc2cccc(C(F)(F)F)c2)nc(C(=O)O)c1
melting point: 61 to 66 °C

smiles.input: O=C1C(=Cc2ccncc2)CCc2cc(OCCn3ccnc3)ccc21
melting point: 128 to 129 °C

smiles.input: CCCCC(=O)c1c(CSc2nccn2C)nc2cc(OC)c(OC)cc2c1-c1ccc(OC)c(OC)c1
melting point: 125 to 127 °C

Consider the compound shown here: COCCN1CCc2cc(Nc3ncc(Cl)c(Nc4ccccc4NS(C)(=O)=O)n3)c(OC)cc2CC1 What is its recorded melting point? 107 to 112 °C

Consider the compound shown here: O=c1c(-c2ccccc2)c(CSc2ncnc3[nH]cnc23)oc2ccc(Br)cc12 What is its recorded melting point? 214 to 218 °C

###

metric.name: melting point

compound: O=Cc1cccc(OCCCN2C(=O)c3ccccc3C2=O)c1
melting point: 102 to 104 °C
--
compound: CCc1ccc(-c2cccc(-c3ccnc4c(C(=O)c5cccs5)cnn34)c2)cc1
melting point: 117 to 119 °C
--
compound: COc1ccc(S(=O)(=O)C(C=CC(C)C)(CC=C(C)C)C(=O)NO)cc1 (stereo not given)
melting point: 93 to 96 °C
--
compound: CNc1nn(C(=O)NC(C)(C)C)c(=O)n1N
melting point: 174 °C
--
compound: CC(=O)c1cccc(Oc2ncccc2C(=O)NCc2ccc(C(C)(C)O)cc2F)c1
melting point: 68 to 70 °C

Now take the following compound into account.
Consider the compound shown here: CCCCc1nc(C(C)(C)O)c(C#N)[nH]1 What is its recorded melting point? 171 to 172 °C

###

metric.name: melting point

For orientation, consider the following solved cases.
compound: Cc1nnc2n1-c1ccc(Br)cc1C(c1ccccc1Cl)=CC2
observed.value: 250 to 252 °C
--
compound: O=C(c1ccc([N+](=O)[O-])cc1)N1CCCCc2sc(Cl)c(Cl)c21
observed.value: 140 to 142 °C
--
compound: CCOC(=O)CCc1c(-c2ccccc2)c2cc(C)c(C)cc2c(=O)n1C
observed.value: 138 to 139 °C
--
compound: COc1cc(C(=O)C(C#N)C#N)cc(OC)c1OC
observed.value: 158 to 160 °C
--
compound: O=C1C[N+]([O-])=C(c2ccccc2F)c2cc(Cl)ccc2N1CC(O)CO (configuration not stated)
observed.value: 165 to 166 °C

Consider the compound shown here: O=C(O)CS(=O)(=O)Nc1ccc(F)cc1C(F)(F)F What is its recorded melting point? 120 to 121 °C

Consider the compound shown here: CCOc1ccc([N+](=O)[O-])cc1NC(C)=O What is its recorded melting point? 195 to 198 °C

Consider the compound shown here: NS(=O)(=O)c1cccc(C2CC2)c1 What is its recorded melting point? 71.5 to 72.9 °C

Consider the compound shown here: O=C1c2ccc(O)cc2OCC1Cc1cccnc1 (configuration not stated) What is its recorded melting point? 181 to 190 °C

Consider the compound shown here: CCN(CC)C(=O)C=Cc1ccc(-c2ccccc2)cc1 What is its recorded melting point? 113 °C

Consider the compound shown here: CC1CCCc2cc([N+](=O)[O-])cnc21 (configuration not stated) What is its recorded melting point? 61 to 63 °C

Consider the compound shown here: Cn1cc(-c2ccc(Cl)cc2)c(=O)c(-c2cccc(C(F)(F)F)c2)c1 What is its recorded melting point? 153 to 155 °C

Consider the compound shown here: CNC(=O)C(NC(=O)c1cn(C)nc1C(F)(F)F)C(COC(C)=O)c1ccccc1 (configuration not stated) What is its recorded melting point? 175 °C

###

Below, each entry is listed alongside its reported melting point.

For orientation, consider the following solved cases.
compound: O=C(Nc1ccc(C(F)(F)F)cc1)NC(Cc1ccc(C(F)(F)F)cc1)C(O)c1ccc(F)cc1 (stereo not given)
observed.value: 160 to 161 °C

compound: COc1ccc(CCCS(=O)(=O)c2ccc(S(N)(=O)=O)s2)cc1
observed.value: 136 to 138 °C

compound: Cc1[nH]c2ccc(/C=C/C(=O)OCc3ccccc3)cc2c1Cn1ccnc1
observed.value: 120 to 122 °C

compound: O=C(O)CCCCCCCCn1nnc(-c2ccccc2)c1-c1ccccc1
observed.value: 86 to 87 °C

Consider the compound shown here: CN(Sc1ccccc1[N+](=O)[O-])C(=O)Nc1ccc(Cl)cc1 What is its recorded melting point? 157 to 158 °C

###

Below, each entry is listed alongside its reported melting point.

compound: Oc1cccnc1CC1(O)CN2CCC1CC2 (stereo not given)
metric.name: melting point
observed.value: 270 to 272 °C

compound: CCCN(CCC)CCc1ccc(O)c(NC(N)=O)c1
metric.name: melting point
observed.value: 168 to 171 °C

compound: C=C1C(=O)OC2C1CCC(CO)=CCCC1(C)OC21 (stereo not given)
metric.name: melting point
observed.value: 172 to 176 °C

compound: Cc1cc(Oc2c(Cl)cc(C(F)(F)F)cc2Cl)nn1C(=O)NC(C)C
metric.name: melting point
observed.value: 103 to 105 °C

Now take the following compound into account.
Consider the compound shown here: COc1cc(Nc2c(C#N)cnc3cc4cc(OC)c(OCCN5CCN(C)CC5)cc4cc23)c(Cl)cc1F What is its recorded melting point? 170 to 173 °C

###

Below, each entry is listed alongside its reported melting point.

For orientation, consider the following solved cases.
compound: CC(C)(C)C(=O)n1c(=O)n(CCN2CCC(=C(c3ccc(F)cc3)c3ccc(F)cc3)CC2)c(=O)c2cscc21
melting point: 69 to 72 °C
//
compound: CCCCCCCCCCCCOCC1CN(c2cc3c(cc2F)c(=O)c(C(=O)O)cn3CC)CCN1 (stereo unspecified)
melting point: 125 to 127 °C
//
compound: COC(=O)c1csc(NC(=O)[C@H](CC2CCCC2)c2ccc(Cl)c(Cl)c2)n1
melting point: 143 to 144 °C
//
compound: CC(C)(C)OC(=O)NC(CC#N)COc1noc2ccc(Cl)cc12 (stereo unspecified)
melting point: 147 to 148 °C
//
compound: COc1ccc2sc(=Nc3ccccc3)sc2c1
melting point: 58 to 60 °C
//
compound: CN1CCC(c2n[nH]c3ccc(NC(=O)c4ccc(F)cc4)cc23)CC1
melting point: 151 to 153 °C
//
compound: Cc1nc(N2CCN(Cc3csc4ccc(Cl)cc34)C2=O)sc1C(=O)NCc1cccnc1
melting point: 185 to 187 °C
//
compound: O=C1C(=CO)C(c2ccc(Cl)cc2)c2ccc(Cl)cc21 (stereo unspecified)
melting point: 122 to 124 °C
//
compound: CC(=O)Oc1ccc2c(c1)CCCO2
melting point: 76 to 77 °C
//
compound: COc1ccc(-c2coc3c(C)c(O)ccc3c2=O)cc1
melting point: 235 °C

Now take the following compound into account.
Consider the compound shown here: COc1cc(I)ccc1C(=O)O What is its recorded melting point? 144 to 146 °C

###

Below, each entry is listed alongside its reported melting point.

Consider the compound shown here: CC1(Cl)C(=O)N(c2ccc(Cl)c(Cl)c2)N=C1C#N (stereo not given) What is its recorded melting point? 68 to 69 °C

Consider the compound shown here: CC1(C)Cc2c(ccc3c2C(c2cccc(-c4ccc(C(=O)O)cc4)c2)=NCC3(C)C)O1 What is its recorded melting point? 286 to 291 °C

Consider the compound shown here: Cn1c(CC(=O)O)ccc1C(=O)c1cccs1 What is its recorded melting point? 141 to 142 °C

Value source: a melting point compilation (Tetko et al.; mined from patent text by program, amines drawn as free bases though some values may be those of a salt)
